The origin of these recorded values is patent US7074190B2.

Test system: adult dogs
Experiment: Blood test for drug-induced hepatotoxicity, dog experiment
Details: Code B dog, 1,200 mg/kg subcutaneous injection, after 12 hours
Assay Readout: ALT (IU/L)
Please respond with the number in IU/L and leave the unit unwritten.

Look up ALT: CC(=O)Nc1ccc(O)cc1 47
